Biological target: human MRGPRX2 (Homo sapiens, UniProt Q96LB1)
Sequence (Q96LB1 1-330): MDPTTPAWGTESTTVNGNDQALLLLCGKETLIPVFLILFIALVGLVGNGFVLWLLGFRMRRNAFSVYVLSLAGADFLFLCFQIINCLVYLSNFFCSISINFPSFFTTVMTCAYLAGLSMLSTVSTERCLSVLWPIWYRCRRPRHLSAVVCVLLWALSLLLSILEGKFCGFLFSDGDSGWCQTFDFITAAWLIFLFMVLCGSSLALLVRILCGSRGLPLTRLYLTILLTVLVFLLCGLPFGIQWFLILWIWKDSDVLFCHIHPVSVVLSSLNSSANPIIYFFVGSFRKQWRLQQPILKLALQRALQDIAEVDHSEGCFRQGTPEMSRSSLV
Assay: Ca2+ mobilization assay (FLIPR TETRA): inhibition of Cortistatin-14 mediated MRGPRX2 activation
READOUT LABEL: IC50

Known IC50 results, listed for orientation:
Memo: CC(C(=O)Nc1cc2ccn(CC3CC3)c2cn1)N1CCC(F)(F)[C@@H](c2ccc(=O)[nH]c2)C1 (some centres unmarked) , reported IC50: 0.1 to 3.16 µM

Memo: C[C@@H](C(=O)Nc1ccc(OCC2CC2)nn1)N1CCC(F)(F)[C@@H](c2ccc(=O)[nH]c2)C1 , reported IC50: 0.01 to 0.1 µM

Memo: C[C@@H](C(=O)Nc1ccc(F)cn1)N1CCC(F)(F)[C@@H](c2ccc(=O)n(CC(F)(F)F)c2)C1 , reported IC50: ≤ 0.01 µM

Memo: C[C@@H](C(=O)Nc1ccc(/C=C\C2CC2)cn1)N1CCC(F)(F)[C@@H](c2ccc(=O)[nH]c2)C1 , reported IC50: 0.01 to 0.1 µM

***
Memo: C[C@@H](C(=O)Nc1cnc(Oc2c(F)cc(F)cc2F)cn1)N1CCC(F)(F)[C@@H](c2cc[n+]([O-])cc2)C1 , reported IC50: ≤ 0.01 µM

Memo: C[C@@H](C(=O)Nc1cnc(Oc2ccc(F)cc2F)cn1)N1CCC(F)(F)[C@@H](c2c[nH]c(=O)c(CN3CCOCC3)c2)C1 , reported IC50: ≤ 0.01 µM

Memo: CC(C(=O)Nc1ccc(F)cn1)N1CCC(F)(F)C(c2c[nH]c(=O)c(C#N)c2)C1 (centres unmarked) , reported IC50: 0.1 to 3.16 µM
